Target: mouse melanopsin (Mus musculus)
Sequence (Q9QXZ9 whole entry): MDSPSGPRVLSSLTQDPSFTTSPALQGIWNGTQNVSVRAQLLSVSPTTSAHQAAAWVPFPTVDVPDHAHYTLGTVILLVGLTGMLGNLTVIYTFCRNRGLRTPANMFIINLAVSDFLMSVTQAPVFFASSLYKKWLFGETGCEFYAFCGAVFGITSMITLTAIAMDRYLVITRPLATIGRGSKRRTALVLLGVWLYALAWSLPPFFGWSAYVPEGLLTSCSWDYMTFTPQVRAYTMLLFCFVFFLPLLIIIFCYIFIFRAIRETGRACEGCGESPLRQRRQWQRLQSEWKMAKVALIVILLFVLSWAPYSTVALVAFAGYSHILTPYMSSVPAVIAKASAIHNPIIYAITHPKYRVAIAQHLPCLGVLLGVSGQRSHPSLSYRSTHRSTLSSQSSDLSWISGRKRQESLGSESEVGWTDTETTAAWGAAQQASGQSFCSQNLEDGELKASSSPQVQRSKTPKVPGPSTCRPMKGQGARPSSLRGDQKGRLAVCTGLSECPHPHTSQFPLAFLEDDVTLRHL
Experiment: Melanopsin photocurrent in Xenopus oocytes
pIC50: −log10 of the molar value.
pIC50 values, listed per item
QUANTITY: pIC50

1. COc1cc(Cl)c(S(=O)(=O)N2CCCCC2)cc1Cl [AA41612]	7.70
2. COc1ccc(S(=O)(=O)N2CCCCC2)cc1C [AA92593]	6.72
